Assay: CellTiter-Blue cell viability assay, MDA-MB-231
Assay type: cell-based, human
Details: human, MDA-MB-231 cells, Table 1, concentration causing 90% cell death, peptide 0.01-100 μM, mean ± SD, triplicates of three independent experiments, read-out: Cytotoxicity MDA-MB-231 cells IC90
Ends that are not written are not given here.
assayEndpoint: IC90 at 24 h (µM)
One number for each entry, in µM.

Ask: Could you tell me which IC90 at 24 h is on file for WRRRYRRWRRRRRWRRRPRR-NH2 [vCPP2319] ?
Reply: 20.6

###

Tested on: HBEC-5i cells
Test: CellTiter-Blue cell viability assay, HBEC-5i
Type: cell-based, human
Conditions: Table 1, concentration causing 90% cell death, 24 h, peptide 0.01-100 μM, mean ± SD, triplicates of three independent experiments
Ends that are not written are not given here.
assayEndpoint: Cytotoxicity HBEC-5i cells IC90

Solved entries:
INSERT INTO assay_data (substance, assayresult) VALUES
  ('TF3-SGTQEEY-amide [TF3-PepNeg, PepNeg labeled at the N-terminus with tide fluor 3]', '>200 µM'),
  ('AGILKRW-NH2 [PepH3]', '>200 µM'),
  ('TF3-AGILKRW-amide [TF3-PepH3, PepH3 labeled at the N-terminus with tide fluor 3]', '>200 µM');

Ask: # value lookup — system HBEC-5i cells, readout Cytotoxicity HBEC-5i cells IC90, item SGTQEEY-NH2 [PepNeg]
Reply: >200 µM

###

Tested on: human RBCs
Assay: Hemolytic activity on human red blood cells
Settings: Table 1; concentration causing 10% hemolysis; human RBCs in 1x PBS pH 7.4, 24 h, 37°C, peptide 0.01-100 μM, hemoglobin absorbance 570 nm; mean ± SD, triplicates of three independent experiments
Ends that are not written are not given here.
Answer each item with its documented Hemolytic activity HC10.

Past entries and their recorded results:
INSERT INTO assay_data (substance, testsystem, assayendpoint, assayresult) VALUES
  ('KKRLKKIFKKPMVIGVTIPF-NH2 [Ctn[15-34]]', 'human RBCs', 'Hemolytic activity HC10', '>200 µM'),
  ('TF3-WRRRYRRWRRRRRWRRRPRR-amide [TF3-vCPP2319]', 'human RBCs', 'Hemolytic activity HC10', '2.83 ± 0.97 µM'),
  ('TF3-KKRLKKIFKKPMVIGVTIPF-amide [TF3-Ctn[15-34]]', 'human RBCs', 'Hemolytic activity HC10', '102.0 ± 6.20 µM'),
  ('WRRRYRRWRRRRRWRRRPRR-NH2 [vCPP2319]', 'human RBCs', 'Hemolytic activity HC10', '>200 µM');

Can you give me Hemolytic activity HC10 for all of these, one by one?
1. AGILKRW-NH2 [PepH3]
2. TF3-AGILKRW-amide [TF3-PepH3]
3. TF3-SGTQEEY-amide [TF3-PepNeg]

Reply:
1: >200 µM; 2: >200 µM; 3: >200 µM
